# target.desc: Serine/threonine-protein kinase Chk1 (Homo sapiens) (UniProt O14757)
# Sequence (O14757 whole entry): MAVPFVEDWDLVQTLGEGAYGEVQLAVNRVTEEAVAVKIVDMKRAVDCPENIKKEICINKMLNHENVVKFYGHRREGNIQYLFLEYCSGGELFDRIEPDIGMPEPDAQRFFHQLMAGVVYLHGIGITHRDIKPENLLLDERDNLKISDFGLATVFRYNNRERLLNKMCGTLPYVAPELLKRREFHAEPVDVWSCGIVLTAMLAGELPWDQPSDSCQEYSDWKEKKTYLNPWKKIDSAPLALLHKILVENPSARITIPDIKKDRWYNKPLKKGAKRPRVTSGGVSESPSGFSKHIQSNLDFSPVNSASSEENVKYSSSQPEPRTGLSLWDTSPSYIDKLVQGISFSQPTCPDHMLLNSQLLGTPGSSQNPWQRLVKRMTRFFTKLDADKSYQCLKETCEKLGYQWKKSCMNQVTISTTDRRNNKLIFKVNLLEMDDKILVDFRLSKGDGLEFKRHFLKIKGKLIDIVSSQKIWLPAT
# particulars: at 1 µM
The threshold is 90%. Values of residual activity beneath it are tagged 1.0; values meeting or exceeding it are tagged 0.0.

Hello, I'm reviewing records and need to know if residual activity of `CC[n+]1c(/C=C/N(C)c2ccccc2)n(-c2ccccc2)c2ccc(-c3nc4ccccc4s3)cc21` is below 90%. Could you check?
0.0

Hello, I'm reviewing records and need to know if residual activity of `CCOc1cc2ncnc(Nc3cccc(Br)c3)c2cc1OCC` is below 90%. Could you check?
1.0

Hello, I'm reviewing records and need to know if residual activity of `O=C1Nc2ccc(Br)cc2/C1=C\c1cc2c([nH]1)CCCC2` is below 90%. Could you check?
1.0

Hello, I'm reviewing records and need to know if residual activity of `Cc1ccc(S(=O)(=O)/C=C/C#N)cc1` is below 90%. Could you check?
0.0

Hello, I'm reviewing records and need to know if residual activity of `O=[N+]([O-])c1ccc(-c2nc(-c3ccc(F)cc3)c(-c3ccncc3)[nH]2)cc1` is below 90%. Could you check?
0.0
